The values you see were collected from the supplement of paper PMC11908140.

B1: library; numbered along this chain (parent)
chain: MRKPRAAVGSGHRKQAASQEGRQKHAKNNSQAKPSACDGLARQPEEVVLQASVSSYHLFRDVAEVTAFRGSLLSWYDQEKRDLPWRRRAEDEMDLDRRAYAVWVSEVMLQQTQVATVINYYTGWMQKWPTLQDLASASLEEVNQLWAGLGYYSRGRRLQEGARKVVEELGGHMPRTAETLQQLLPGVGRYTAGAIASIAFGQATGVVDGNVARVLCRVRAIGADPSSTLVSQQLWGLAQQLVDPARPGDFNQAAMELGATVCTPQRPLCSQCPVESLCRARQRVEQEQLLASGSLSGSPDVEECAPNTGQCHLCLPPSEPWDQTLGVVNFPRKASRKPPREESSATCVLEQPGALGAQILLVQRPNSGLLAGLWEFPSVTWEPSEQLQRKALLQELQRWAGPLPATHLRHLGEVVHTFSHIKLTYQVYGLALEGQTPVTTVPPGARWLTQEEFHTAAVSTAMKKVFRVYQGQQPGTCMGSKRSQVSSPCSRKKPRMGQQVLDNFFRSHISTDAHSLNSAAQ

- Variants of: B1
- assay_procedure: 8OG:A repair function score (normalized; synonymous = 0, nonsense = -1) (normalized log-likelihood score); higher = more repair activity (WT-like);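 further: cells sorted at 72 h after reporter transfection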
- condition: with 8OG:A DNA repair reporter (GFP) in HEK-293 MUTYH KO cells
Please enter fulfilled where 8OG:A repair function score is greater than or equal to -0.3, and not fulfilled where it is lower.

[[record]]
sequence_change = "Q351L"
class_label = "fulfilled"

[[record]]
sequence_change = "S296C"
class_label = "fulfilled"

[[record]]
sequence_change = "P34M"
class_label = "fulfilled"

[[record]]
sequence_change = "L277E"
class_label = "fulfilled"

[[record]]
sequence_change = "L268N"
class_label = "fulfilled"

[[record]]
sequence_change = "W235M"
class_label = "not fulfilled"

[[record]]
sequence_change = "V104H"
class_label = "not fulfilled"

[[record]]
sequence_change = "R491W"
class_label = "fulfilled"

[[record]]
sequence_change = "A238K"
class_label = "not fulfilled"

[[record]]
sequence_change = "P320Y"
class_label = "fulfilled"

[[record]]
sequence_change = "L234G"
class_label = "not fulfilled"

[[record]]
sequence_change = "Y469H"
class_label = "fulfilled"

[[record]]
sequence_change = "W374H"
class_label = "not fulfilled"

[[record]]
sequence_change = "L180T"
class_label = "not fulfilled"

[[record]]
sequence_change = "E303M"
class_label = "fulfilled"

[[record]]
sequence_change = "L387Y"
class_label = "fulfilled"

[[record]]
sequence_change = "G222F"
class_label = "not fulfilled"

[[record]]
sequence_change = "L180I"
class_label = "fulfilled"

[[record]]
sequence_change = "Q470S"
class_label = "fulfilled"

[[record]]
sequence_change = "A137V"
class_label = "not fulfilled"

[[record]]
sequence_change = "T346M"
class_label = "fulfilled"

